Where do the numbers come from? From ChEMBL document CHEMBL5614391.

System: HT-1080
Test: Reversal of erastin induced cell death in human HT-1080 cells assessed as cell viability preincubated for 1 hr followed by erastin addition and measured after 24 hrs by CCK8 method
Field: EC50. Provide a value for each of the molecules that follow.
Output spec: scalar in µM, unitless text.

Q: Endpoint output: EC50 of `COc1ccc(NCc2cccn2-c2nnc(N3CCN(C)CC3)s2)c(OC)c1` . Value?
Ans: 7.8

Q: Endpoint output: EC50 of `COc1ccc(NCc2cccn2-c2nnc(N3CCN(C)CC3)s2)cc1OC` . Value?
Ans: 19.2

* * *

Molecular target: Phospholipid hydroperoxide glutathione peroxidase GPX4 (Homo sapiens, UniProt P36969)
Sequence (P36969 whole entry): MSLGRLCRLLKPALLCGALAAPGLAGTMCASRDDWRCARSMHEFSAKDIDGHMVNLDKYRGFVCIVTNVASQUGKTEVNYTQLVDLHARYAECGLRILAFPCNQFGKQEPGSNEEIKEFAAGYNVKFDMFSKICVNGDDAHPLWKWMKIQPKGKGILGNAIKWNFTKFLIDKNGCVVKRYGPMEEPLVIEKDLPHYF
Field: pKd. Provide a value for each of the molecules that follow.
Scale: negative log10 of molar concentration, which is what pKd denotes.

Q: Endpoint output: pKd of `COc1ccc(NCc2cccn2-c2nnc(NC(=O)c3cccc(F)c3)s2)cc1OC` . Value?
Ans: 6.03

Q: Endpoint output: pKd of `COc1ccc(NCc2cccn2-c2nnc(N3CCCCC3)s2)cc1OC` . Value?
Ans: 5.24

Q: Endpoint output: pKd of `COc1ccc(NCc2cccn2-c2nnc(N)s2)cc1OC` . Value?
Ans: 6.77

Q: Endpoint output: pKd of `CCOc1cc(NCc2cccn2-c2nnc(N3CCN(C)CC3)s2)ccc1OC` . Value?
Ans: 4.97

Q: Endpoint output: pKd of `COc1ccc(NCc2cccn2-c2nn3ccnc3s2)c(OC)c1` . Value?
Ans: 6.14

Q: Endpoint output: pKd of `COc1ccc(NCc2cccn2-c2ccc(N3CCN(C)CC3)s2)cc1OC` . Value?
Ans: 5.16

Q: Endpoint output: pKd of `COc1ccc(NCc2cccn2-c2nnc(N3CCOCC3)s2)c(OC)c1` . Value?
Ans: 4.98

Q: Endpoint output: pKd of `COc1ccc(NCc2cccn2-c2cnc(C)s2)cc1OC` . Value?
Ans: 5.08

Q: Endpoint output: pKd of `COc1ccc(NCc2cccn2-c2nnc(NC(=O)c3ccc(F)cc3)s2)cc1OC` . Value?
Ans: 5.33

Q: Endpoint output: pKd of `CCCN1CCN(c2nnc(-n3cccc3CNc3ccc(OC)c(OC)c3)s2)CC1` . Value?
Ans: 7.44

Q: Endpoint output: pKd of `COc1ccc(NCc2cccn2-c2ccc(Cl)cc2)cc1OC` . Value?
Ans: 5.94
